# EXPERIMENTAL_SYSTEM: MAPK14 (human)
# ASSAY_PROTOCOL: LPS Induced TNF-alpha Production Inhibition (THP1 Cells)
QUANTITY_KIND: IC50 (µM)

Below are worked cases with known answers.
[[record]]
compound_structure = "Fc1ccc(-c2c(-c3ccncc3)n(CCN3CCCCC3)c3cccnc23)cc1"
quantity_kind = "IC50"
endpoint_result = 0.0003

[[record]]
compound_structure = "COn1c(-c2ccncc2)c(-c2ccc(F)cc2)c2ncccc21"
quantity_kind = "IC50"
endpoint_result = 0.00046


(P) OCCNc1cc(-c2[nH]c3nccnc3c2-c2ccc(F)cc2)ccn1
(Q) Fc1ccc(-c2c(-c3ccncc3)[nH]c3nccnc23)cc1
(R) Fc1ccc(-c2c(-c3ccncc3)n(OCCN3CCCC3)c3cccnc23)cc1
(S) N#CCCCn1c(-c2ccncc2)c(-c2ccc(F)cc2)c2nccnc21
Prompt line: Kindly order the items shown according to IC50, from the highest value down. Answer with the labels in sequence, matching the requested order.
Response line: S, Q, P, R
(S: 8.83 µM, Q: 1.1 µM, P: 0.241 µM, R: 0.00012 µM)
